- Measured On: HLA-B*08:01
- Run Description: IEDB peptide-MHC binding, purified MHC/competitive/radioactivity; filed as Kd, often an IC50 or EC50 that approximates it; bounds were set here for any values at or beyond the usual limits of such assays
- Measurement Conditions: source organism: Dengue virus 2 Jamaica/1409/1983
Property Measured: Kd
# output: numeric value plus its unit

Example results:
ordered_residues=GMNSRSTSL recorded_measurement="7.81 nM"
ordered_residues=LMGLGKGWPL recorded_measurement="304 nM"

Note: attention shifts to another entry.
# input Looking for the measured Kd of `MRGAKRMAI` , can you help?
# output 2.44 nM

---

- Measured On: HLA-B*51:01
- Run Description: IEDB peptide-MHC binding, purified MHC/direct/fluorescence; filed as Kd, often an IC50 or EC50 that approximates it; bounds were set here for any values at or beyond the usual limits of such assays
- Measurement Conditions: source organism: Yellow fever virus
Property Measured: Kd

# input Looking for the measured Kd of `AATIRVLAL` , can you help?
# output ≥ 20 µM
